Molecular target: RUNX1 (UniProt Q01196)
Sequence (Q01196 whole entry): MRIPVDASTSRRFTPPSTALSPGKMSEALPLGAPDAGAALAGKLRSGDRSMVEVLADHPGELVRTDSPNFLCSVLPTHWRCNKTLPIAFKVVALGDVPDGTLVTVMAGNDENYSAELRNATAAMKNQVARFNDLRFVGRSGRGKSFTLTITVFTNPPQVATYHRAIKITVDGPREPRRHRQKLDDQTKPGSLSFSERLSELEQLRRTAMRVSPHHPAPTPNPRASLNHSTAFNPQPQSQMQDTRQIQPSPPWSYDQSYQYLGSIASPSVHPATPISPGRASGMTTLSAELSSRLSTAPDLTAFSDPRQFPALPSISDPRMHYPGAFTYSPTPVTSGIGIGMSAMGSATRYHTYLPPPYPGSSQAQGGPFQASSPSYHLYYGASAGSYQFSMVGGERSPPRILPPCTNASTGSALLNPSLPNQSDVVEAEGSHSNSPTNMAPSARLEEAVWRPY
Assay: RUNX1 binding intensity (PBM fluorescence), RUNX1 alone (arbitrary fluorescence units); higher = stronger binding;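 further: Full-length recombinant human RUNX1 bound to double-stranded 36-bp genomic probes on a high-density microarray, scored as Alexa488 fluorescence per spot via anti-RUNX1 antibody, median of four replicate spots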
Settings: RUNX1 concentration 2 nM; ETS1 concentration 0 nM

[
  {
    "Polymer Sequence": "GTGCAGGGCCCGGAAGCTCAGTGTGGTTAAAGACAT",
    "RUNX1 binding intensity": 805
  },
  {
    "Polymer Sequence": "GCCGGGCACTTCCTGTGGAGGCCGCAGCGGGTGCGC",
    "RUNX1 binding intensity": 709
  },
  {
    "Polymer Sequence": "GTTGGTCGCGCGCCTTCCTGCGGCTAAGATGGCGAC",
    "RUNX1 binding intensity": 749
  },
  {
    "Polymer Sequence": "TCCTCCGTTTCCGTAGTTCCGAGTTGCGGTTTCTCC",
    "RUNX1 binding intensity": 12000
  },
  {
    "Polymer Sequence": "GAAAGACAGGATGTGGGATAGATCTCAACCACCTTT",
    "RUNX1 binding intensity": 817
  },
  {
    "Polymer Sequence": "CTAGCAGGAAACAGACAGACCCAGCCACAGAATCTC",
    "RUNX1 binding intensity": 919
  }
]
